experiment: Microsomal stability, PHLM; assay type: in vitro ADME; conditions: 3 μM (n = 3), pooled human liver microsomes; read-out: Invitro T1/2, PHLM
Measure Name: half-life at 3 μM

// query Reported half-life at 3 μM, molecule CCC(CC)n1cnc2c(-c3cnc(N)cn3)nc(N3CC4CCC(C3)O4)nc21 [FT-1518-Esylate] : ____
// result > 1 h

---

assay: Caco-2 permeability; conditions: human, Caco-2
Measure Name: efflux ratio at 10 μM
# respond with the number and nothing more

// query Reported efflux ratio at 10 μM, molecule CCC(CC)n1cnc2c(-c3cnc(N)cn3)nc(N3CC4CCC(C3)O4)nc21 [FT-1518-Esylate] : ____
// result 1.8
